# measurement.notes: Cytotoxicity against human HepG2(2.2.15) cells
# Type: cell-based
Catalogue of compounds with associated CC50

Here's what some known entries look like.
C[C@H](C[C@H](OC(=O)c1cccc([N+](=O)[O-])c1)[C@@H](OC(=O)c1cccc([N+](=O)[O-])c1)C(C)(C)OC(=O)c1cccc([N+](=O)[O-])c1)C1=C2C[C@H](OC(=O)c3cccc([N+](=O)[O-])c3)[C@H]3[C@@]4(C)CCC(=O)C(C)(C)[C@@H]4CC[C@]3(C)[C@@]2(C)CC1
> 1100 µM
C[C@H](C[C@H](OC(=O)/C=C/c1ccccc1Cl)[C@@H](OC(=O)/C=C/c1ccccc1Cl)C(C)(C)OC(=O)/C=C/c1ccccc1Cl)C1=C2C[C@H](OC(=O)/C=C/c3ccccc3Cl)[C@H]3[C@@]4(C)CCC(=O)C(C)(C)[C@@H]4CC[C@]3(C)[C@@]2(C)CC1
> 1400 µM

Could you now look at the following compound, please?
Could you please provide reported CC50 for `C[C@H](C[C@H](OC(=O)CCC1CCCCC1)[C@@H](OC(=O)CCC1CCCCC1)C(C)(C)OC(=O)CCC1CCCCC1)C1=C2C[C@H](OC(=O)CCC3CCCCC3)[C@H]3[C@@]4(C)CCC(=O)C(C)(C)[C@@H]4CC[C@]3(C)[C@@]2(C)CC1` ? Thanks!
> 1700 µM
